I'd appreciate it if you could supply IC50, inhibition of 5 pM MfIL-33-6His activation of HEK293/hST2/NFkB-luciferase cells values for the items below.
Target: T1, cynomolgus monkey IL-33 expressed with a C-terminal hexahistidine tag (cynomolgus monkey)
T1 chain: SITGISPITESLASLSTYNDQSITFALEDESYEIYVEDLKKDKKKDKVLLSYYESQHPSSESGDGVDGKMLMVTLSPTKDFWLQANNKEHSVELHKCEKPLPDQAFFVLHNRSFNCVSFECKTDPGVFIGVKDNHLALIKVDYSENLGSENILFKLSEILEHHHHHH
Assay: cell-based or functional assay
Answers are plain numbers, in M.

// below: answered binders
binder	reported.value
H1M9566N (antibody, mouse IgG1, V domains shown, Human variable domains, mouse IgG1 Fc (H1M)) VH: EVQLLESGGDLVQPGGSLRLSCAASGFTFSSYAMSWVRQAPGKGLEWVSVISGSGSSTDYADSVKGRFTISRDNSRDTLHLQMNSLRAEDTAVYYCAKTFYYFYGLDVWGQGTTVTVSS VL: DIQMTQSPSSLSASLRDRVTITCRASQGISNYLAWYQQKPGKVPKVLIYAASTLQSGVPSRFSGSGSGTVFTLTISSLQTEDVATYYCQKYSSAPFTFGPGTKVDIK	1.5e-09
H4H9665P (antibody, human IgG4, V domains shown, Human IgG4 Fc (H4H)) VH: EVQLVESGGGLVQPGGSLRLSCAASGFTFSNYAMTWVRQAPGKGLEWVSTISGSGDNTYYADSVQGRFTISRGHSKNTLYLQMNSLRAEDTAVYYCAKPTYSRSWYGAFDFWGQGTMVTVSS VL: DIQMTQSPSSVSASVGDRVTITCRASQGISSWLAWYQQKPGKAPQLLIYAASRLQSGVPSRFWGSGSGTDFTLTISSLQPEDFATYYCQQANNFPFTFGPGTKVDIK	6.6e-10
H4H9670P (antibody, V domains shown, Human IgG4 Fc (H4H)) VH: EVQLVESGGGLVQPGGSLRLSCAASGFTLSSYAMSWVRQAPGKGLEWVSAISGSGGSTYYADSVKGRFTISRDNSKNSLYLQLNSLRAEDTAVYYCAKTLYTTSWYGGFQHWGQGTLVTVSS VL: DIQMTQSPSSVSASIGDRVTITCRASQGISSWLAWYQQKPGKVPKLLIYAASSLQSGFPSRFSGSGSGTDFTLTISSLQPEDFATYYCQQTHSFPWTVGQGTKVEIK	1.7e-08
H4H9660P (antibody, human IgG4, V domains shown, Human IgG4 Fc (H4H)) VH: EVQLVESGGGLVQPGGSLRLSCAASGITLSSYGMSWVRQAPGKGLEWVASIFGSGGGPYYADSVKGRFTMSRDNSKNTLYLQMNSLRAEDTAVYYCAKDRYSGSYYGGFDYWGRGTLVTVSS VL: DIQMTQSPSSVSASVGDRVTITCRASQGITSWLAWYQQKPGKAPTLLIYAASSLQTGVPSRFSGSGSGTDFTLTISSLQPEHFATYYCQQANSFPPTFGGGTKVEIK	1.9e-08

# context switch: different binder, same IC50, inhibition of 5 pM MfIL-33-6His activation of HEK293/hST2/NFkB-luciferase cells
For the binder shown here, H1M9568N (antibody, mouse IgG1, V domains shown, Human variable domains, mouse IgG1 Fc (H1M)) VH: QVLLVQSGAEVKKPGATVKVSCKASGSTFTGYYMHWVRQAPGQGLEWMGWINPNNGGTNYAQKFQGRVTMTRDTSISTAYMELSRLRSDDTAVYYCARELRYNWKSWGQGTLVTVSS VL: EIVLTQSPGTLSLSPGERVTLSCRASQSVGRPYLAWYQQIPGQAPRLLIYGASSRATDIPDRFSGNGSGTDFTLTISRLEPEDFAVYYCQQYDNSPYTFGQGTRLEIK , give the reported IC50, inhibition of 5 pM MfIL-33-6His activation of HEK293/hST2/NFkB-luciferase cells. 3.5e-09
